Cited source for all entries: a melting point compilation (Tetko et al.; mined from patent text by program, amines drawn as free bases though some values may be those of a salt)

readout: melting point

c1ccc2c(c1)OCc1c(-c3nc(C4CC4)no3)ncn1-2    169 to 173 °C

Quick note, melting point for `CC1(C)Nc2cc(Br)ccc2-n2cccc21` landed at 89 to 91 °C

response.value for `CC1(NC2=NS(=O)(=O)c3sc(Cl)cc3N2)CCC1` (field: melting point) = 294 to 296 °C

In plain terms, CCOC(=O)COc1ccc(C(=O)Nc2ccccc2S(=O)c2ccccc2C#N)cc1 (stereo unspecified) has a documented melting point of 128 to 130 °C

The value of melting point measured for the compound CC(O)C(C)(C)NC(N)=S (stereo unspecified) turned out to be 148 to 151 °C

// field: melting point; key: `COc1ccc2c(c1)c(CN(O)C(C)=O)c(C)n2C(=O)c1ccc(Cl)cc1` ; value = 160 to 161 °C

In plain terms, `Cc1ccc2c(c1)CCN2c1ccccc1C#N` has a documented melting point of 59 to 60 °C

Quick note, melting point for `CCn1cc(C(=O)O)c(=O)c2cnc(N3CCN(Cc4ccc(NC(C)=O)cc4)CC3)nc21` landed at 216 to 219 °C

Briefly, melting point measured for CCN(CC)c1ccc(CN2C(=O)C(C)(c3ccccc3Cl)c3cc(Cl)ccc32)c(OC)c1 (stereo unspecified) : 198 °C

The recorded melting point for entry `CCc1cc(O)c(C(C)=O)c(O)c1` equals 121 to 123 °C

So for `Cc1cc(N2CCN(C)CC2)n2nc(OCCO)c(S(=O)(=O)c3ccccc3)c2n1` , the logged melting point turned out to be 178 °C

// melting point value for `O=C(O)COc1ccc(SCc2ccc(OCc3ccc(C(F)(F)F)cc3)cc2)c2c1CCC2` : 145 °C

Given item `CN(CCCNc1ncc(Cc2ccc(O)cc2)c(=O)[nH]1)c1ccccn1` , the value recorded as its melting point is 109 to 111 °C

Lab note: measured melting point of `COc1cc2ncc(C#N)c(Nc3ccc(F)cc3)c2cc1OC` was 282 to 285 °C

Quick note, melting point for `CN(C)CCc1cccc2ccc(CS(=O)(=O)N3CCOCC3)cc12` landed at 114 to 117 °C

Consider CNc1nc(C(C)c2ccc(-c3ccccc3)c(F)c2)co1 (stereo unspecified) . Its measured melting point is 134 to 135 °C

The compound `COc1cc(OC)c2c(c1)OC(C)(C)CC2=O` showed melting point equal to 104 to 105 °C

Lab note: CCCCc1ccc(CC(N)C(=O)O)cc1 (stereo unspecified) gave melting point of 218 to 223 °C

Field melting point (entry `O=c1[nH]c2cc(Cl)c(Cl)c(Cn3cncn3)c2[nH]c1=O` ) reads > 320 °C

Value of measured melting point for the entry `O=C(NCCCSc1ccncc1)c1cccnc1` : 90 to 91 °C

// sample `CCc1nc2c(cnn2CC)c(NC2CCOCC2)c1CNC(=O)c1cccc(C(=O)NCc2cc(Cl)cc(-c3cccc(CN4CCN(C)CC4)c3)c2)c1` , its melting point was 116 to 118 °C

* * *

Recorded melting point for the following compounds

A selection of reference data follows.
COC(=O)Cc1ccc(N)c(O)c1    112 to 114 °C
CC(=O)C(=Cc1cccc([N+](=O)[O-])c1)P(=O)(OCC(C)C)OCC(C)C    81 to 82 °C
O=[N+]([O-])c1ccc(Oc2cncc(Cl)n2)cc1    125 to 127 °C

Entry `O=C(Nc1c([N+](=O)[O-])cnn1-c1c(Cl)cc(C(F)(F)F)c(Cl)c1Cl)C(Cl)Cl` — recorded melting point = 112 to 120 °C

* * *

Quick list: melting point per entry.

Answered examples (5):
CCOc1c(F)cc2[nH]c(=O)c(=O)[nH]c2c1[N+](=O)[O-]    293 to 295 °C
CN(C)C(=O)Oc1ccc2c(c1)N(Cc1ccccc1)CCC2    104 °C
CCOC(=O)c1cc(C(C)=O)on1    67 to 68 °C
C/C(=N\OC(=O)[C@@H](NC(=O)OC(C)(C)C)C(C)C)[C@H]1CC[C@H]2[C@@H]3CCC4=CC(=O)CC[C@]4(C)[C@H]3CC[C@]12C    82 to 84 °C
O=c1ccc([N+](=O)[O-])cn1[C@@H]1c2ccccc2OCC[C@H]1O (relative stereo)    152 to 155 °C

According to the records, this molecule `CC1(C(=O)N2C[C@H](S(=O)(=O)c3ccc(OCC(F)(F)F)cc3C(F)(F)F)C[C@H]2C(=O)NC2(C#N)CC2)CC1` displays melting point of 126 to 127 °C

Reported melting point ( `CCOc1ccc(Cl)cc1C(N)=O` ) = 136 to 139 °C

melting point in this record for O=C1c2ccccc2C(OCC2CO2)N1c1cccc(Cl)c1 (centres undefined) : 170 °C

Entry `CCN(CC)CC#CC(=O)Nc1ccc2ncc(C#N)c(Nc3cccc(Br)c3)c2c1` — recorded melting point = 133 to 135 °C

* * *

// values below are reported melting point

CCCc1c(OCCCCCCc2ccc(O)c(O)c2Cl)ccc(C(=O)O)c1O    145 to 146 °C
O=C1CSC(C(=O)O)Cc2cc3c(cc21)OCO3 (stereo not given)    234 to 235 °C
O=Cc1cn(Cc2ccc(OCc3ccccc3)cc2)nc1-c1ccc(F)cc1    97 to 98 °C

So, `CO[C@@H](C)CNC(=O)c1c[nH]c2ncc(-c3nn(C)c4cc(F)ccc34)nc12` ? Its melting point was 269 to 271 °C

melting point measured on `O=C(CCNc1c(C(=O)O)[nH]c2cc(Cl)cc(Cl)c12)c1cccc(F)c1` = 270 to 280 °C

Notebook: `Cc1nccn1-c1ccc(NC(=O)CCc2cnoc2-c2ccc(Cl)cc2)cn1` , melting point read as 193 to 194 °C

Value of melting point reported for the molecule `CS(=O)(=O)c1ccc(-c2nn(Cc3cccnc3)c(=O)cc2-c2ccc(Cl)cc2)cc1` is 248 °C

molecule `CC(C)(C)OC(=O)N[C@H]1CCN(OCc2ccccc2)C1=O` , melting point observed: 113 to 114 °C

// recorded melting point for CCOCc1nc2cnc3cc(OCCNC(=O)OC(C)(C)C)ccc3c2n1CC1COC(C)(C)O1 (stereo not given) : 152 to 153 °C

For this molecule ( CN1CCC2c3[nH]c4ccccc4c3CCN2C1 (stereo not given) ), measured melting point is 168 °C

* * *

readout: melting point

Consider the following illustrative entries.
CCOC(=O)CN1CCC(CNC(=O)c2cc(Cl)c(N)[nH]c2=O)CC1    162 to 164 °C
Cc1cc(S(=O)(=O)c2c[nH]c3ccc(F)cc23)ccc1C1CCN(C)C1 (centres undefined)    86.5 to 93.5 °C
COc1cc(N(C)C)nc(NC(=O)NS(=O)(=O)c2ccccc2CCC(F)(F)F)n1    183 to 184 °C

get_value(item= `Cc1nnc(CNC(=O)CNC(=O)CN2C(=O)c3ccccc3C2=O)n1-c1ccc(Cl)cc1C(=O)c1ccccc1Cl` , readout=melting point) returns 269 to 270 °C

Please fill in: melting point reported for `CCOc1sc(C(N)=O)c2c1-c1c(cnn1C)CC2` = 200 to 202 °C

Lab note: measured melting point of `CCCc1cc(C)nc(-c2cccc(Oc3ccccc3Cl)n2)n1` was 73.7 °C

The reported value for `CCOC(OCC)c1nc(N)nc(N)c1-c1ccc(Cl)cc1Cl` in terms of melting point is 225 °C

Value of measured melting point for the entry `CN1CCN(CCCNc2ncc3cc(-c4c(Cl)cccc4Cl)c(NC(=O)Nc4ccc(Cl)cc4)nc3n2)CC1` : 176 to 181 °C

# compound `CNc1nc2ccccc2cc1[N+](=O)[O-]` ; its melting point = 160 °C

* * *

Examples of compounds with documented melting point follow.

COc1ccc(-c2ccc(C=O)c3ccoc23)cc1    143 to 144 °C

The compound listed as O=[N+]([O-])c1nccn1C1CCCCO1 (stereo unspecified) has a reported melting point of 50 °C

Record summary for `O=C(c1ccc(OC(F)(F)F)cc1)c1ccc(C(F)(F)F)cc1` : reported melting point = 61.5 to 62 °C

Per the records, this compound ( `COc1ccc(-c2ccc3cc(C(=O)O)ccc3c2)cc1` ) has melting point equal to 267 to 269 °C

# melting point (compound: `O=C(NCC1CCN(C[C@H]2COc3ccc(Cl)cc3O2)CC1)c1cccnc1` ) is 172 to 174 °C

Item: CC(=CC(NC=O)C(=O)OCc1ccccc1)CP(=O)(OC(C)C)OC(C)C (stereo unspecified) | melting point: 50 to 58 °C

* * *

Each entry below carries its recorded melting point.

Example cases with answers are listed next.
COc1ccc(C=O)c(OC)c1Cl    107 to 108 °C
CCC(=O)N1CCNC1=NC#N    208 to 210 °C
CCOC(=O)c1cnc2cc(-c3ccccc3)sc2c1O    286 to 289 °C
Cc1cc(C)cc(Sc2c(C)c[nH]c(=O)c2N)c1    208 to 210 °C
COC(=O)C(CC(C)C)NC(=O)C(C)NC(=O)OCc1ccccc1 (stereo unspecified)    65 to 68 °C
CC(C)CCCCCCCC=CC1CC(=O)N(NC(=O)CCc2cc(C(C)(C)C)c(O)c(C(C)(C)C)c2)C1=O (stereo unspecified)    62 to 68 °C
COc1ccc(OC)c(S(=O)(=O)n2c(CCCC(=O)O)cc3cc(Cl)ccc32)c1    201 to 209 °C
CCCCOc1ccc2c(c1)C(NS(C)(=O)=O)CC(C)(C)O2 (stereo unspecified)    123 to 127 °C
O=C(O)CCc1nn(-c2ccc(F)cc2)cc1-c1ccc(Cl)cc1    131 °C
COc1ccc(CCNC(=O)C(F)(F)F)cc1S(N)(=O)=O    165 to 166 °C

Short answer for CC(OC(=O)N(C(C)C)C(C)C)c1ccccc1[N+](=O)[O-] (stereo unspecified) : melting point was 40 to 41 °C
